TARGET SYSTEM: Transcription intermediary factor 1-alpha (Homo sapiens)
Sequence (whole entry): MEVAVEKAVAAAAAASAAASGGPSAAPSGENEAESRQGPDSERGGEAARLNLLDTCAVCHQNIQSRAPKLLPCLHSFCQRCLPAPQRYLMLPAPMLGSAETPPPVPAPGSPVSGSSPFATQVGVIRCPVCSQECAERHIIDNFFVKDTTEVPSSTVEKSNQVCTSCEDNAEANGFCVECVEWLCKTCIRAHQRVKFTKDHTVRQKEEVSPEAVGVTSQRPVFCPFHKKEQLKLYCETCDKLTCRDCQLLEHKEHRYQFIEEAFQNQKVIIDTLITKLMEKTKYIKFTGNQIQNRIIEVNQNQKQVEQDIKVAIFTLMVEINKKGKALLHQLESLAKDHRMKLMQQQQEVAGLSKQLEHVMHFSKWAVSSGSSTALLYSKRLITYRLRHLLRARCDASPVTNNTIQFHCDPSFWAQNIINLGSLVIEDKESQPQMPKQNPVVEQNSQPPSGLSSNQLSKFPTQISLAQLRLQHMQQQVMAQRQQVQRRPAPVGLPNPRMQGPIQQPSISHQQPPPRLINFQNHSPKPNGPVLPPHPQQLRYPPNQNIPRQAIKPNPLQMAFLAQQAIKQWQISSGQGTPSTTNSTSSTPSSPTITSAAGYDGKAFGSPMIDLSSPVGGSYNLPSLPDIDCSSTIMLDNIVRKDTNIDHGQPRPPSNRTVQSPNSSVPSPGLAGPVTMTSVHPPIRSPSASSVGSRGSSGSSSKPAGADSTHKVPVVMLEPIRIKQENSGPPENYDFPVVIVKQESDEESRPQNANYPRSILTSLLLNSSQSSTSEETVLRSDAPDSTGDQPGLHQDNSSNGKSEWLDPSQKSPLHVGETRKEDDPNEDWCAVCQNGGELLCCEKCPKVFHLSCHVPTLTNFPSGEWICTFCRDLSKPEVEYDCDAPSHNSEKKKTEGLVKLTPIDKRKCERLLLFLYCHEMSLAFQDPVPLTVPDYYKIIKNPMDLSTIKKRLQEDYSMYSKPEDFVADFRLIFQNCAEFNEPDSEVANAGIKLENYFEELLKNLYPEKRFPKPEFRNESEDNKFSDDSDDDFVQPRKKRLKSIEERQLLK
STATED CONDITIONS: Compound concentration 20.0 uM
Non-standard residues stand in square brackets, D forms with d. Residues, ends and D or L forms follow the SMILES beside them. *: point of attachment. Benzoyl(4-tBu) = CC(C)(C)c1ccc(C(=O)*)cc1; Lys(Et2) = CCN(CC)CCCC[C@H](N)C(=O)O; Cbz = O=C(OCc1ccccc1)*; CH2F = FC*
PROPERTY: ΔTm (°C)
Provide only the numeric value, understood in °C.

For the compound O=C(NC(Cc1ccccc1)C(=O)NC(Cc1ccccc1)C(=O)CF)OCc1ccccc1 (stereo not drawn) (Cbz-Phe-Phe-CH2F; configuration not given here) , what ΔTm is on record?
1.22

Another: CN(Cc1cc(Br)cc(Br)c1N)C1CCCCC1
0.31

Please do the same for CCN(C(=O)c1cc(F)ccc1Oc1cncnc1N1CC2(CCN(C[C@H]3CC[C@H](NS(=O)(=O)CC)CC3)CC2)C1)C(C)C as well.
0.24

What do you get for CC/C(=C(/c1ccc(/C=C/C(=O)O)cc1)c1ccc2[nH]ncc2c1)c1ccc(F)cc1Cl ?
0

Likewise for CS(=O)(=O)n1cc2c(n1)CN([C@H]1CO[C@H](c3cc(F)ccc3F)[C@@H](N)C1)C2 ?
-0.65

Try this compound too: CC(C)c1c(-c2ccccc2)[nH]c2c(C#N)cnn2c1=O
-0.06

Field: next compound
Need ΔTm of CCN(CC)CCCC[C@H](NC(=O)[C@H](CC(C)C)NC(=O)[C@H](C)NC(=O)[C@H](Cc1ccccc1)NC(=O)c1ccc(C(C)(C)C)cc1)C(=O)N[C@@H](CO)C(=O)OC ({Benzoyl(4-tBu)}-FAL[Lys(Et2)]S-OMe) , thanks.
-1.11

* * *

TARGET SYSTEM: Tyrosine-protein kinase ABL1 (Homo sapiens) (UniProt P00519)
Sequence (P00519 whole entry): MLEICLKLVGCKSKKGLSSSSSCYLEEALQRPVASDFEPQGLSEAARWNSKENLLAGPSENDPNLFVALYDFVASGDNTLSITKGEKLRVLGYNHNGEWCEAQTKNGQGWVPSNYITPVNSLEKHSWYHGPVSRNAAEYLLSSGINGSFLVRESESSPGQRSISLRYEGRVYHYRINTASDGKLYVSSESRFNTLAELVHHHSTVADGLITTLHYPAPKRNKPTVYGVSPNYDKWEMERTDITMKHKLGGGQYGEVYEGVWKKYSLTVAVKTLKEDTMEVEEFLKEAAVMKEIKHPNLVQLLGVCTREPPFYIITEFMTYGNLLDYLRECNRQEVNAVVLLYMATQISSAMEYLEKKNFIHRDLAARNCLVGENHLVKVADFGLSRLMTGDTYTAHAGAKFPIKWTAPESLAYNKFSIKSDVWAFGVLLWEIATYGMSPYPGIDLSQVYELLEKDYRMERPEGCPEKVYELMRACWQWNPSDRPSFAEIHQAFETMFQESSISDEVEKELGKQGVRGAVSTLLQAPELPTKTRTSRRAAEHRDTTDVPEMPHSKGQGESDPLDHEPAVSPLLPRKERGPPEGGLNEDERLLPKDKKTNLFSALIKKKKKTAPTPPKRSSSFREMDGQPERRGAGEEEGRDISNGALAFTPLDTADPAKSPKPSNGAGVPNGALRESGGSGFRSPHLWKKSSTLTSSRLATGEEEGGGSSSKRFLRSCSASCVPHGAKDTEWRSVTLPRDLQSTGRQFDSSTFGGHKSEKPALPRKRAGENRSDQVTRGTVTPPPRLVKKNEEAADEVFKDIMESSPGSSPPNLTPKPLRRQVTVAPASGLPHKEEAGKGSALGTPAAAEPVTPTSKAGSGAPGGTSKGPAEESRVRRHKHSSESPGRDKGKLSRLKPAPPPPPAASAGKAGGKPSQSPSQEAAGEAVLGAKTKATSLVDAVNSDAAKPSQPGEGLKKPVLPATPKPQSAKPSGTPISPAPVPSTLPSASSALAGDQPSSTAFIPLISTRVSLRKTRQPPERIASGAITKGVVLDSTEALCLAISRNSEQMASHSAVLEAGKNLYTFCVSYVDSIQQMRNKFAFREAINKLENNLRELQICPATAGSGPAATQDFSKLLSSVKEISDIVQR
STATED CONDITIONS: Compound concentration 20.0 uM
Description: Thermal Shift Assay. Domain: start/stop: S229-K512
The label is 1 for ΔTm below 0.5 °C and -1 for ΔTm equal to or exceeding 0.5 °C.

Use these answered entries as a reference point.
Decide: ΔTm of N#Cc1cc2cc(CN3CCC(Nc4ncnc5sc(CC(F)(F)F)cc45)CC3)ccc2[nH]1 strictly below 0.5 °C?
1

Subsequent entry: CN(CCC(Oc1ccc(-c2ccccc2)cc1)c1ccc(F)cc1)CC(=O)O (centres undefined)
-1

Okay, and CC(=O)N1CCN([C@H]2CCC[C@@H](NC(=O)c3cc4c(F)ccc(C)c4[nH]3)C2)CC1 ?
1

Others:
Take the compound CCc1c(C)nc(-c2ccc(Cl)s2)nc1Nc1ccc(CC(=O)O)cc1 and say whether its ΔTm is less than 0.5 °C.
-1

Another compound to look at: CC(C)(OCc1cc(-c2cccc(OC3CC3)c2)n(-c2ccccc2Cl)n1)C(=O)O
1

Entry to check: Cc1nn2c(nc(O)c3cccnc32)c1C#N
-1

Another compound to check: Cc1cc(N2C[C@@H](C)N[C@@H](C)C2)ncc1-c1ccc(-c2nc3c(ccn3C)c(=O)[nH]2)cc1
-1

Please give the result for CC(C)N(CCCNC(=O)Nc1ccc(C(C)(C)C)cc1)C[C@H]1O[C@@H](n2ccc3c(N)ncnc32)[C@H](O)[C@@H]1O too.
1

Please answer likewise for O=C1C(=O)N(Cc2ccccc2)c2ccc(S(=O)(=O)N3CCC[C@H]3COc3ccc(C(F)(F)F)cc3)cc21
1

* * *

TARGET SYSTEM: Glycogen synthase kinase-3 beta (Homo sapiens)
STATED CONDITIONS: Compound concentration 20.0 uM
Description: Thermal Shift Assay. Domain: start/stop: M26-R383
Entries whose ΔTm is below -0.2 °C take Y; entries at or above -0.2 °C take N.

Lab note: ΔTm threshold -0.2 °C. Does this compound come in strictly under it? O=C(Cc1ccccc1)c1cc(O)c(O)c([N+](=O)[O-])c1
Y

* * *

TARGET SYSTEM: Casein kinase I isoform delta (Homo sapiens) (UniProt P48730)
Sequence (P48730 whole entry, looked up, canonical isoform): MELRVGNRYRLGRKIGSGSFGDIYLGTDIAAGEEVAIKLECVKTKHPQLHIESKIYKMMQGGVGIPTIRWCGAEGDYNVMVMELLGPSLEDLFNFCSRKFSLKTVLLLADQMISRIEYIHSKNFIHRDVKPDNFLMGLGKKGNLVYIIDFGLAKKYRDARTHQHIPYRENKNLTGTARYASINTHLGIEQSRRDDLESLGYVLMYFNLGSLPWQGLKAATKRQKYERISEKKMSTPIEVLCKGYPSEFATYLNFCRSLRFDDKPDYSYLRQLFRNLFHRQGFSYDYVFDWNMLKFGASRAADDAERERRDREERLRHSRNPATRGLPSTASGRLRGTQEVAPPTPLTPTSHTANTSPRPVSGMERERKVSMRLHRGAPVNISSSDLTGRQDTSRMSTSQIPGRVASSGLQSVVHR
STATED CONDITIONS: Compound concentration 20.0 uM
Description: Thermal Shift Assay. Domain: start/stop: M1-K294
Lab note - cut at -0.2 °C for ΔTm: Yes if strictly below, No if not.

Please review the following examples before continuing.
Here's an entry: C[C@@H]1OC(=O)NN=C1c1ccc(-c2ccc(F)cc2)c(C(F)(F)F)c1 . Is its ΔTm below -0.2 °C?
Yes

Try this compound next: CCOc1ccc(S(=O)(=O)Nc2ccc(Cl)cc2C#Cc2cnc(C(=O)O)cc2OC)c2ncccc12
Yes

Now this one: C[C@H](Nc1nc2c(cnn2C2CCCC2)c(=O)[nH]1)c1ccc(Cl)cc1
No

Queued: O=C(Nc1c(Cl)cncc1Cl)c1ccc(OC(F)F)c(OCC2CC2)c1
Yes

Same question, CCCN(CCC)c1ccc(C=O)cc1Br this time
Yes

What do you have for COc1cc(-c2cn(C)c(=O)c3cnccc23)cc(OC)c1CN(C)CC(=O)NCCOCCOCCNc1cccc2c1C(=O)N(C1CCC(=O)NC1=O)C2=O (stereo not given) ?
No

Others:
Given the entry CCCCCCCCCCCCCC(=S)NCCCC[C@H](NC(=O)OCc1ccccc1)C(=O)Nc1ccccc1 , would its reported ΔTm be below -0.2 °C?
No

Thanks! And Cc1cc(C)c(-c2[nH]nc(C)c2C)cc1C(=O)N1CC(c2ccc(C#N)cc2)C1 ?
Yes

* * *

TARGET SYSTEM: Casein kinase I isoform delta (Homo sapiens) (UniProt P48730)
STATED CONDITIONS: Compound concentration 20.0 uM
Residues, ends and D or L forms follow the SMILES beside them.
Consider the reported ΔTm of an entry and match it to a band in low group (below -0.01 °C), middle group (-0.01 °C to below 0.5 °C), high group (0.5 °C or more)

Category lookup for the compound CS(=O)(=O)N1CCN(C(=O)c2cnc3ccc(F)cc3c2N2CCC(C#N)(c3ccccc3)CC2)CC1
middle group

Others:
Which class is correct for the following compound? Nc1c[nH]c(=O)c2cc(-c3ccccc3)sc12
high group

Cool, now CC(C)c1cnc(CSc2cnc(NC(=O)C3CCNCC3)s2)o1
high group

Request: N#Cc1cccnc1N1CCN(C(=O)c2cccc(Cc3n[nH]c(=O)c4ccccc34)c2)CC1
middle group

Also check CC(=O)N[C@H](C(=O)N[C@@H](CC(=O)O)C(=O)N[C@H](C(=O)N[C@@H](C)C(=O)N[C@H](C=O)CC(=O)O)C(C)C)C(C)C (Ac-VDVAD-aldehyde)
low group

Next compound up: CC(C)N(CCCNC(=O)Nc1ccc(C(C)(C)C)cc1)C[C@H]1O[C@@H](n2ccc3c(N)ncnc32)[C@H](O)[C@@H]1O
middle group

# repeat for CC(=O)N[C@@H](CC(=O)O)C(=O)N[C@@H](CC(N)=O)C(=O)N[C@@H](CC(C)C)C(=O)N[C@H](C=O)CC(=O)O
low group

Next compound: O=[N+]([O-])c1ccc(CSc2ncnc3c2ncn3[C@@H]2O[C@H](CO)[C@@H](O)[C@H]2O)cc1
low group

Same again, this time with CCCc1nc(C)c2c(C)nc3ccc(OC)nc3n12
high group

Could you do the same for CCCCNc1cc(C(=O)O)cc(S(N)(=O)=O)c1Oc1ccccc1 , please?
middle group
